Target: DRB1*1101 (DR5w11) (Homo sapiens, UniProt P01903+P01911, A100R/A169T/A87E/I96F/K41T/L162R/M171V/P40S/Q125H/Q178H/Q39Y/Q99D/R42S/S66Y/T262R/V115G/W38E)
Sequence (P01903 26-254 limits assumed, other chains not shown): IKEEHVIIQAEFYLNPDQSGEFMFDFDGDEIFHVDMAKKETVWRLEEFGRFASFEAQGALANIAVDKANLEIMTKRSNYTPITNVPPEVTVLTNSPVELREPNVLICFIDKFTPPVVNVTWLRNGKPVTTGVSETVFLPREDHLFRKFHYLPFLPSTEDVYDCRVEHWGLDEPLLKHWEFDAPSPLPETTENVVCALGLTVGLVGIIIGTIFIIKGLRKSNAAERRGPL
Assay: HLA class II peptide binding assay, purified HLA
Conditions: Table XXa, DR 3a motif peptides; unit not given
OBSERVED PROPERTY: DR5w11 binding data
Answer with a bare number; do not write a unit.

Data request, read-out DR5w11 binding data, for CC(C)C[C@H](NC(=O)[C@H](CC(=O)O)NC(=O)[C@H](CCCNC(=N)N)NC(=O)[C@H](Cc1c[nH]cn1)NC(=O)[C@@H](NC(=O)[C@H](CC(C)C)NC(=O)[C@H](CCCNC(=N)N)NC(=O)[C@@H](N)C(C)C)C(C)C)C(=O)N[C@@H](C)C(=O)N[C@@H](C)C(=O)N[C@@H](CCCNC(=N)N)C(=O)N[C@@H](CC(N)=O)C(=O)N[C@H](C(=O)N[C@@H](CC(C)C)C(=O)N[C@H](C(=O)O)C(C)C)C(C)C
0.2700

Taken from patent US20040121946A9.
